Assign pIC50 to each entry below.
# Tested on: H929 cells
# method.description: Cell viability assay (H929 10 FBS)
# Assay type: cell-based
# condition.description: Homo sapiens, NCI-H929, 24 hours, read-out: H929_10FBS IC50
pIC50: −log10 of the molar value.

Reference set (2 entries):
CC1(C)OC/C=C/[C@H](O)[C@@H]2CC[C@H]2CN2C[C@@]3(CCOc4cc(Cl)ccc43)COc3ccc(cc32)S(=O)(=O)NC1=O : < 6.00
CO[C@@H]1/C=C/CN(C)[C@H](C)C(=O)NS(=O)(=O)c2ccc3c(c2)N(C[C@@H]2CC[C@H]21)C[C@@]1(CCCc2cc(Cl)ccc21)CO3 : > 6.00

Please look at the following compound next.
CC1(C)OC/C=C\[C@H](O)[C@@H]2CC[C@H]2CN2C[C@@]3(CCCc4cc(Cl)ccc43)COc3ccc(cc32)S(=O)(=O)NC1=O yielded pIC50 of > 6.30

###

# tested.system: UniProtKB Q07820
# method.description: Cell free Mcl-1:Bim affinity assay (fluorescence polarization competition)
# Type: binding
# condition.description: 15 nM MCL-1, 5 nM FITC-Bim, 1 hour at room temperature; class symbols; read-out: BIM_Ki
pKi: −log10 of the molar value.
readout: pKi

CN1C(=O)OC[C@@H]2CC[C@H]2CN2C[C@@]3(CCCc4cc(Cl)ccc43)COc3ccc(cc32)S(=O)(=O)NC(=O)N2CC[C@H]1C2 : > 9.00
CC1(C)CN(C(=O)O[C@H]2/C=C/COC(C)(C)C(=O)NS(=O)(=O)c3ccc4c(c3)N(C[C@@H]3CC[C@H]32)C[C@@]2(CCCc3cc(Cl)ccc32)CO4)CCO1 : > 9.00

Please look at the following compound next.
CO[C@@H]1/C=C/COC2(CCC2)C(=O)NS(=O)(=O)c2ccc3c(c2)N(C[C@@H]2CC[C@H]21)C[C@@]1(CCCc2cc(Cl)ccc21)CO3 yielded pKi of 7.00 to 9.00

###

# Tested on: H929 cells
# method.description: Cell viability assay (H929 10 FBS)
# Type: cell-based
# condition.description: Homo sapiens, NCI-H929, 24 hours, read-out: H929_10FBS IC50
pIC50: −log10 of the molar value.
Assign pIC50 to each entry below.

Reference set (2 entries):
CO[C@@H]1/C=C/CN[C@@H](C2CC2)C(=O)NS(=O)(=O)c2ccc3c(c2)N(C[C@@H]2CC[C@H]21)C[C@@]1(CCCc2cc(Cl)ccc21)CO3 : < 6.00
CO[C@H]1/C=C/CCCC(=O)NS(=O)(=O)c2ccc3c(c2)N(C[C@@H]2CC[C@H]21)C[C@@]1(CCCc2cc(Cl)ccc21)CO3 : < 6.00

# return pIC50 for each item in the list
1. CC1(C)OC/C=C/[C@@H](OCCN2CCCC2)[C@@H]2CC[C@H]2CN2C[C@@]3(CCCc4cc(Cl)ccc43)COc3ccc(cc32)S(=O)(=O)NC1=O
2. CO[C@H]1CCN(C(=O)O[C@H]2/C=C/COC(C)(C)C(=O)NS(=O)(=O)c3ccc4c(c3)N(C[C@@H]3CC[C@H]32)C[C@@]2(CCCc3cc(Cl)ccc32)CO4)C1
3. CC1(C)OC/C=C/[C@H](OC(=O)N2CCN(C3COC3)CC2)[C@@H]2CC[C@H]2CN2C[C@@]3(CCCc4cc(Cl)ccc43)COc3ccc(cc32)S(=O)(=O)NC1=O
4. CO[C@@H]1/C=C/CNC(=O)NS(=O)(=O)c2ccc3c(c2)N(C[C@@H]2CC[C@H]21)C[C@@]1(CCCc2cc(Cl)ccc21)CO3
5. CC1(C)OC/C=C/[C@H](OCC(=O)NC2CCOCC2)[C@@H]2CC[C@H]2CN2C[C@@]3(CCCc4cc(Cl)ccc43)COc3ccc(cc32)S(=O)(=O)NC1=O
6. CN(C)CCN(C)C(=O)O[C@H]1/C=C/COC2(CCC2)C(=O)NS(=O)(=O)c2ccc3c(c2)N(C[C@@H]2CC[C@H]21)C[C@@]1(CCCc2cc(Cl)ccc21)CO3

1: > 6.00; 2: > 6.30; 3: > 6.30; 4: < 6.00; 5: > 6.30; 6: > 6.30

###

# Test system: H929 cells
# method.description: Cell viability assay (H929 10 FBS)
# Type: cell-based
# condition.description: Homo sapiens, NCI-H929, 24 hours, read-out: H929_10FBS IC50
readout: IC50

Reference set (2 entries):
CC1(C)OC/C=C/[C@H](OCC(=O)N2CC(F)C2)[C@@H]2CC[C@H]2CN2C[C@@]3(CCCc4cc(Cl)ccc43)COc3ccc(cc32)S(=O)(=O)NC1=O : < 500 nM
CCN1C/C=C/[C@@H](OC)[C@@H]2CC[C@H]2CN2C[C@@]3(CCCc4cc(Cl)ccc43)COc3ccc(cc32)S(=O)(=O)NC(=O)[C@H]1C : < 500 nM

# return IC50 for each item in the list
1. [2H]C1([2H])/C=C/[C@H](OC(=O)N(C)C)[C@@H]2CC[C@H]2CN2C[C@@]3(CCCc4cc(Cl)ccc43)COc3ccc(cc32)S(=O)(=O)NC(=O)C(C)(C)O1
2. CN(C)[C@@H]1CCN(C(=O)O[C@H]2/C=C/COC(C)(C)C(=O)NS(=O)(=O)c3ccc4c(c3)N(C[C@@H]3CC[C@H]32)C[C@@]2(CCOc3cc(Cl)ccc32)CO4)C1
3. O=C1Cn2ccc(n2)CC(=O)N2CCC(C2)CN2C[C@@]3(CCCc4cc(Cl)ccc43)COc3ccc(cc32)S(=O)(=O)N1 (stereo partly drawn)
4. O=C1Cc2ccn(n2)CC(=O)N2CCC(C2)CN2C[C@@]3(CCCc4cc(Cl)ccc43)COc3ccc(cc32)S(=O)(=O)N1 (stereo partly drawn)

["< 500 nM", "< 500 nM", "< 500 nM", "> 1000 nM"]

###

Assign pKi to each entry below.
# tested.system: MCL-1 (Homo sapiens (Human), UniProt Q07820)
# Sequence (Q07820 whole entry): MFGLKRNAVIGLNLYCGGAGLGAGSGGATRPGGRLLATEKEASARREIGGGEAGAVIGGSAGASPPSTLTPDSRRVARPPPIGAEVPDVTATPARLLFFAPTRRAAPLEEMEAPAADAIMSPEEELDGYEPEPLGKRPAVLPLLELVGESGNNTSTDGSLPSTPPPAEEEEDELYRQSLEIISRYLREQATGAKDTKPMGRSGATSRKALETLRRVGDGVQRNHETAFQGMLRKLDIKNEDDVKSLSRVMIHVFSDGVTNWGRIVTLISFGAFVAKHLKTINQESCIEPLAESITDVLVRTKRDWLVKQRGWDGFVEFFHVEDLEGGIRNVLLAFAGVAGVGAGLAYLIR
# method.description: Cell free Mcl-1:Bim affinity assay (fluorescence polarization competition)
# Assay type: binding
# condition.description: 15 nM MCL-1, 5 nM FITC-Bim, 1 hour at room temperature; class symbols; read-out: BIM_Ki
pKi: −log10 of the molar value.

Reference set (2 entries):
CO[C@H]1/C=C/CCCC(=O)NS(=O)(=O)c2ccc3c(c2)N(C[C@@H]2CC[C@H]21)C[C@@]1(CCCc2cc(Cl)ccc21)CO3 [Example 80] : 7.00 to 9.00
CN1C/C=C/[C@H](OC(=O)N2CCOCC2)[C@@H]2CC[C@H]2CN2C[C@@]3(CCCc4cc(Cl)ccc43)COc3ccc(cc32)S(=O)(=O)NC(=O)C1(C)C [Example 199] : > 9.00

# return pKi for each item in the list
1. CC1(C)OC/C=C\[C@H](O)[C@@H]2CC[C@H]2CN2C[C@@]3(CCCc4cc(Cl)ccc43)COc3ccc(cc32)S(=O)(=O)NC1=O [Example 33]
2. CO[C@@H]1/C=C/CNC2(CC2)C(=O)NS(=O)(=O)c2ccc3c(c2)N(C[C@@H]2CC[C@H]21)C[C@@]1(CCCc2cc(Cl)ccc21)CO3 [Example 119]
3. COC1CN(C(=O)O[C@H]2/C=C/COC(C)(C)C(=O)NS(=O)(=O)c3ccc4c(c3)N(C[C@@H]3CC[C@H]32)C[C@@]2(CCCc3cc(Cl)ccc32)CO4)C1 [Example 56]

1. > 9.00
2. 7.00 to 9.00
3. > 9.00

###

# tested.system: MCL-1 (Homo sapiens (Human), UniProt Q07820)
# method.description: Cell free Mcl-1:Bim affinity assay (fluorescence polarization competition)
# Format: binding
# condition.description: 15 nM MCL-1, 5 nM FITC-Bim, 1 hour at room temperature; class symbols; read-out: BIM_Ki
pKi: −log10 of the molar value.
Assign pKi to each entry below.

Reference set (5 entries):
CC1(C)OC/C=C/[C@H](OCCN2CC[C@@H](F)C2)[C@@H]2CC[C@H]2CN2C[C@@]3(CCCc4cc(Cl)ccc43)COc3ccc(cc32)S(=O)(=O)NC1=O : > 9.00
CN1C(=O)OC[C@@H]2CC[C@H]2CN2C[C@@]3(CCCc4cc(Cl)ccc43)COc3ccc(cc32)S(=O)(=O)NC(=O)N2CC[C@@H]1C2 : > 9.00
CO[C@H]1/C=C/COCC(=O)NS(=O)(=O)c2ccc3c(c2)N(C[C@@H]2CC[C@H]21)C[C@@]1(CCCc2cc(Cl)ccc21)CO3 : 7.00 to 9.00
CCN1C/C=C/[C@H](OC(=O)NC2CCOCC2)[C@@H]2CC[C@H]2CN2C[C@@]3(CCCc4cc(Cl)ccc43)COc3ccc(cc32)S(=O)(=O)NC(=O)C1(C)C : > 9.00
CC1(C)OC/C=C/[C@H](OC(=O)N2CCN(C3COC3)CC2)[C@@H]2CC[C@H]2CN2C[C@@]3(CCCc4cc(Cl)ccc43)COc3ccc(cc32)S(=O)(=O)NC1=O : > 9.00

# return pKi for each item in the list
1. C[C@@H]1C(=O)NS(=O)(=O)c2ccc3c(c2)N(C[C@@H]2CC[C@H]2[C@@H](OC(=O)N(C)C)/C=C/CN1C)C[C@@]1(CCCc2cc(Cl)ccc21)CO3
2. CC(=O)N(C)[C@H]1/C=C/COC(C)(C)C(=O)NS(=O)(=O)c2ccc3c(c2)N(C[C@@H]2CC[C@H]21)C[C@@]1(CCCc2cc(Cl)ccc21)CO3
3. CC1(C)OC/C=C/[C@H](OC(=O)NCCN2CCC(O)CC2)[C@@H]2CC[C@H]2CN2C[C@@]3(CCCc4cc(Cl)ccc43)COc3ccc(cc32)S(=O)(=O)NC1=O
4. CCN1C/C=C/[C@H](O)[C@@H]2CC[C@H]2CN2C[C@@]3(CCCc4cc(Cl)ccc43)COc3ccc(cc32)S(=O)(=O)NC(=O)C1(C)C

> 9.00
7.00 to 9.00
> 9.00
7.00 to 9.00

Values from patent US11130769B2
